The reader will find reported %Inh values listed item by item below.
System: JNK1;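 note: KINOMEscan kinase panel screen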
Construct: gene MAPK8
Conditions: concentration: 1 μM, replicates: in singlicate; n = 1
property label: %Inh (%)

CCCCc1nn2ncccc2c1-c1ccnc(Nc2ccc(N3CCN(C)CC3)cc2)n1
95.1
O=C(Nc1n[nH]c2cc(-c3ccoc3)ccc12)C1CC1
8
O=C(Nc1cccc(Oc2ccc3nc(NC(=O)C4CC4)cn3n2)c1)c1ccccc1C(F)(F)F
0
CCc1ccc(-c2ccc3c(c2)-c2c(cnn2C)S(=O)(=O)N3C)cc1
0
c1ccc(Oc2ccc(Nc3ccnc4cc(-c5ccc(CNCCN6CCOCC6)o5)ccc34)cc2)nc1
18
CC(C)c1nc(-c2cccc(NS(=O)(=O)c3c(F)cccc3F)c2F)c(-c2ccnc(Nc3ccc(N4CCOCC4)nc3)n2)s1
3
COc1cc(Nc2ncc3c(C)nc(-c4cc5ccccc5[nH]4)n3n2)cc(OC)c1OC
11
C[C@@H]1CC[C@@H](C(=O)Nc2ccccc2)CN1c1cc(-c2ccc3c(N)n[nH]c3c2)nc(N)n1
0
Cc1ccc(C(=O)Nc2ccc(Nc3ccnc4cc(-c5nccs5)ccc34)cc2O)cc1.Cl
18
